- System: MS2 coat protein
- MEASUREMENT_PROTOCOL: apparent KD of MS2 coat protein; designed switch direction (-1 OFF switch, 1 ON switch): -1; higher = weaker reporter binding
- STATED_CONDITIONS: Eterna round: R95; input ligand: microRNA oligo, concentration not stated
TEST_READOUT: apparent KD of MS2 coat protein (nM)
The response must be a number in nM with no trailing unit.

Examples with their reported apparent KD of MS2 coat protein follow.
INSERT INTO assay_data (construct_sequence, system, test_readout, reported) VALUES
  ('UCGGCGCGAGGAUAUGCGGCUGCUGCUUCGGGCCGUGGCGUACAUGAGGAUCACCCAUGUAGAAGGCGCGCCGC [Apr-15 SS2-40] (puzzle: Exclusion 2)', 'MS2 coat protein', 'apparent KD of MS2 coat protein', 11.3),
  ('CGCUAGUCAGGAUAUACGAACAUGUCAAAAGACGUGAAGGGACAUGAGGAUCACCCAUGUAGAAGGGACUAGCC [salish99_ex2_r3_011] (puzzle: Exclusion 2)', 'MS2 coat protein', 'apparent KD of MS2 coat protein', 21.3),
  ('AUGGACGCAGGAUAUACAUGAGGAUCACCCAUGUGAGGUUGGUAAGUAGGAAGUGAAGGUAGAAGGGCGAGAGU [JR_Exclu3_Sub098] (puzzle: Exclusion 3)', 'MS2 coat protein', 'apparent KD of MS2 coat protein', 84.2);

// CAGUACUGAGGAUAUACAUGAGGAUCACCCAUGUGUUCCAGCUAGGAAACUAGCAGAAGUAGAAGGCAGUACUG [salish99_ex3_r3_067] (puzzle: Exclusion 3) : apparent KD of MS2 coat protein value = 25.5

// GAUUAUGCGAGCUUUAGGGACAUGAGGAUCACCCAUGUUCGUCUUGUUGAUCUAGGUACACUGACAUACCUAAAUCU [JMF 65] (puzzle: Sensor v3, turn-off variant 1) : apparent KD of MS2 coat protein value = 26.9

----------
Each entry below lists one item and its recorded apparent KD of MS2 coat protein value.
- Test system: MS2 coat protein
- MEASUREMENT_PROTOCOL: apparent KD of MS2 coat protein; designed switch direction (-1 OFF switch, 1 ON switch): -1; higher = weaker reporter binding
- STATED_CONDITIONS: Eterna round: R95; input ligand: none
The response must be a number in µM with no trailing unit.

INSERT INTO measurements (construct_sequence, value_units, reported) VALUES
  ('AGAUGGCGAGGAUAUACAUGAGGAUCACCCAUGUGAAGAAGAAGAGUGAGGAAGAAAAGUAGAAGGCGCUGUCA [Mat - Exclusion 3 - Mod of Salish D30] (puzzle: Exclusion 3)', 'µM', 0.0647),
  ('GAUUAUGCGAGCUUUAGGGACAUGAGGAUCACCCAUGUUCGUCUUAUUGGUCUAGGUACGCUGACAUACCUAAAUCU [JMF 101] (puzzle: Sensor v3, turn-off variant 1)', 'µM', 0.0237),
  ('UUGGAGAUAGGAUAUACGAGGAGAGUUGAGGGAACGCGAUGACAUGAGGAUCACCCAUGUAGAAGGAUCAGGAG [JR_Exclu2_Sub070] (puzzle: Exclusion 2)', 'µM', 0.0403);

// AUAAGCUUUGAGAUCCUUAACAUGAGGAUCACCCAUGUUCGUCUUAUGAUGGUCUGAUCCCUGAGGAUCGGACCGUC [JL-sv1-2.01 Brourd Mod] (puzzle: Sensor v3, turn-off variant 1) : apparent KD of MS2 coat protein value = 0.416

// AAUAAGUGAGGAUAUGCAAUAAUAAAUAAAAUAAUAAAUAAGCAGAAGGCACAUGAGGAUCACCCAUGUAAUAA [JMF's solution 1] (puzzle: Exclusion 4) : apparent KD of MS2 coat protein value = 0.0216

// UGGCUGCUCAGGGAGUGUGACAUGAGGAUCACCCAUGUGGUAGUAAGGAACAAGCUUUUUACACGUACUUAUAAAGC [JR_SV3TOV1_Sub011] (puzzle: Sensor v3, turn-off variant 1) : apparent KD of MS2 coat protein value = 0.296

// ACAAGCUUUUUGUUCGUCUUAUAAUAAUAAAUAAAUAUAACAUGAGGAUCACCCAUGUUAAGAAGACAACCUCAUGU [Sesor Array 25 - Jieux - Sensor v3, turn-off variant 2] (puzzle: Sensor v3, turn-off variant 2) : apparent KD of MS2 coat protein value = 0.305

// AUGAGCAGACGGAGAUCCAACAUGAGGAUCACCCAUGUCUCAUAAGCUUUUUGUUCAUCUUAUUGUACCUUGGUGCA [Mat - Sensor v3 - turn-off var 1 - JL Mod - D25] (puzzle: Sensor v3, turn-off variant 1) : apparent KD of MS2 coat protein value = 0.0555

// GCAGGCGACUAGGCUCGUCUUAUUUUGAGAAGAUUGAAAACAUGAGGAUCACCCAUGUGUGUGGGAGAGUUGGAGUG [JR_SV3TOV2_Sub012] (puzzle: Sensor v3, turn-off variant 2) : apparent KD of MS2 coat protein value = 0.475

// UUUUUGUCAGGAUAUGCAUGUUUUUUUUUUUUUUUUUUCAUGCAGAAGGGACAUGAGGAUCACCCAUGUAGUUU [Ex4 - 3 - 10] (puzzle: Exclusion 4) : apparent KD of MS2 coat protein value = 0.0379

// GAUUAUGCGAGCUUUAGGGACAUGAGGAUCACCCAUGUUCGUCUUAUUAGUCUAGAUACGCUGACAUACCUAAAUCU [JMF 96] (puzzle: Sensor v3, turn-off variant 1) : apparent KD of MS2 coat protein value = 0.0158

// GGUGAGAGCAAGGAUAUGCAGAAGAGAGAAAGAGCAGAAGGUGCUACAUGAGGAUCACCCAUGUUGGAUGUGUU [JR_E6_Sub014] (puzzle: Exclusion 6) : apparent KD of MS2 coat protein value = 0.0393

// AAUAAUAGGGAGGAUAUCGUAUCGGAAACGAUACGAGAAGGUCUAACAUGAGGAUCACCCAUGUUCCUCAAUAA [Fiskers Ex 6 - 5] (puzzle: Exclusion 6) : apparent KD of MS2 coat protein value = 0.0457

// GCGUAUGAGCAGGAUAUCCCGCGGGAAUCCAUAGGAGAAGGGCUCACAUGAGGAUCACCCAUGUGGUCCAGAAA [Isisan] (puzzle: Exclusion 6) : apparent KD of MS2 coat protein value = 0.018

----------
- System: MS2 coat protein
- MEASUREMENT_PROTOCOL: apparent KD of MS2 coat protein; higher = weaker reporter binding
- STATED_CONDITIONS: Eterna round: R107; input ligand: theophylline 2 mM
Each entry below lists one item and its recorded apparent KD of MS2 coat protein value.
The response must be a number in nM with no trailing unit.

Examples with their reported apparent KD of MS2 coat protein follow.
INSERT INTO results (construct_sequence, test_readout, value_units, reported) VALUES
  ('UAAUCCGGUCCUCGAUAAUCCUCAUGUAAACGAGGACCGGUACGGCCGCCACUCGAUAACAUGAGGAUCACCCAUGUAAUAAUAA [|T''-M''-Trp-Ms2|_Design14]', 'apparent KD of MS2 coat protein', 'nM', 82.2),
  ('UAUAUAUAUCACGAACUGUGGUGUAUGUCUCGAGGACCGGUACGGCCGCCACUCGCGCGGCCUCACAUGAGGAUCACCCAUGUCC [XTryp A #5]', 'apparent KD of MS2 coat protein', 'nM', 107),
  ('GAUAUAUAGGCGGCCGCCACUGAUUUUCAUAUAUAUAUAACAUGAGGAUCACCCAUGUAGAUAUACAGGACCGGGCCUAUAUAUU [aaaB]', 'apparent KD of MS2 coat protein', 'nM', 16);

// GCUAGUGGCAGAAGGAGCGGCAUACAUGCAAGUGACAUGAGGAUCACCCAUGUAAGGGAAUGCCAGGUAGGUCGCUGCCACUAGC [EAB NP+V+V2 #2 +-Same Structure] : apparent KD of MS2 coat protein value = 89.2

// GUUUUAUACUCGGCCGCCACUGAGAGAGUCAUGUAAACAUGAGGAUCACCCAUGUAAUAUAUAUACAGGACCGGGAGUAGGGUAA [4.F] : apparent KD of MS2 coat protein value = 12.2

// CGAUAUAUACGAAGGAGCGACAUGAGGAUCACCCAUGUCUACCACGUCGAAAGACGCUCAUGUCAGGUAGGUCGCGUAUAUAUCG [Astros-Eli-mod9] : apparent KD of MS2 coat protein value = 239

----------
- System: MS2 coat protein
- MEASUREMENT_PROTOCOL: apparent KD of MS2 coat protein; designed switch direction (-1 OFF switch, 1 ON switch): -1; higher = weaker reporter binding
- STATED_CONDITIONS: Eterna round: R95; input ligand: microRNA oligo, concentration not stated
Short version: apparent KD of MS2 coat protein at least 30 nM is condition met, less is condition not met.

Problem: Item CUUCUCAAAGGAUAUCACGGUAAUAACAUGAGGAUCACCCAUGUGCAAUUCGUGUCCCUGUGAGAAGGUUGAGAAG [Remaor] (puzzle: Exclusion 5) with apparent KD of MS2 coat protein of 30 nM or above?
Result: condition not met

Problem: Item AGAUCACAUGAGGAUCACCCAUGUGAGGAUAUGAUACUAUGUACUUCGGUACAUAGUAUCAGAAGGCAUGUGAA [Ex1-3: 74] (puzzle: Exclusion 1) with apparent KD of MS2 coat protein of 30 nM or above?
Result: condition met

Problem: Item UUUAAUUUUUUUUUUUUACAAGCUUUUUGCUCGUCUUAUACAUGAGGAUCACCCAUGUGGGUAAGAGAUAAAUUAUC [JMF 13] (puzzle: Sensor v3, turn-off variant 2) with apparent KD of MS2 coat protein of 30 nM or above?
Result: condition met

Problem: Item AAAACCUCUGUCAGGAUAUCCAUGCGUCCAAAAGCGGAGAAGGGACAUGAGGAUCACCCAUGUUAGCAAAAUCA [Ceenxequ] (puzzle: Brourd's mod of Exclusion 4) with apparent KD of MS2 coat protein of 30 nM or above?
Result: condition met

Problem: Item AGGUAACAUGAGGAUCACCCAUGUCAGGAUAUCAGUAAGAUGAGGAUAGAAUAGAGUAUGAGAAGGGACUAUAU [Excluse me! 22 - Jieux - Exclusion 1] (puzzle: Exclusion 1) with apparent KD of MS2 coat protein of 30 nM or above?
Result: condition met

Problem: Item CCUAUGUGAGGAUAUCACUGGUCUUUUCAUUGGAUGAUUAGUGAGAAGGCACAUGAGGAUCACCCAUGUCGGUG [Ex4 - 3 - 52] (puzzle: Exclusion 4) with apparent KD of MS2 coat protein of 30 nM or above?
Result: condition met

Problem: Item UUAUUACAAGCAAGAUCCCACAUGAGGAUCACCCAUGUGCUCGUCUUAUAAGGUACAGUGACGAAAGUCACAGUACC [Sensor 3, v1 - 0] (puzzle: Sensor v3, turn-off variant 1) with apparent KD of MS2 coat protein of 30 nM or above?
Result: condition met

Problem: Item GGUUGCGCAGGAUAUACAUGAGGAUCACCCAUGUGAGAGAAAUAAGUGAGGAAGAAAAGUAGAAGGGCGUGACA [Mat - Exclusion 3 - Mod of Salish D75] (puzzle: Exclusion 3) with apparent KD of MS2 coat protein of 30 nM or above?
Result: condition met

FYI, the data here is from the supplement of paper PMC9170038.
